Origin of the recorded values: ChEMBL document CHEMBL1165965

- EXPERIMENTAL SYSTEM: Serine/threonine-protein kinase SBK1 (Homo sapiens) (UniProt Q52WX2)
- Sequence (Q52WX2 whole entry): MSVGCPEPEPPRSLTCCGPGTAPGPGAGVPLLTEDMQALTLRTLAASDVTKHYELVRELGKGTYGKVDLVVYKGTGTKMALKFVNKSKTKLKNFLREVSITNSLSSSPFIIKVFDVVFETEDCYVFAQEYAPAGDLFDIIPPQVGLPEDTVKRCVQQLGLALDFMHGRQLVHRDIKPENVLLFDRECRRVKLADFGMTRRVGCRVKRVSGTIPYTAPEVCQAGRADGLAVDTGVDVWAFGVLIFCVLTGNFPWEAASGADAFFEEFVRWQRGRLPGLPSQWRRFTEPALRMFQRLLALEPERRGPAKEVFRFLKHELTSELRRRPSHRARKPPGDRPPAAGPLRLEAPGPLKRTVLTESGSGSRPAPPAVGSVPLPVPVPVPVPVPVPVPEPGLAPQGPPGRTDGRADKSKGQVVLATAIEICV
- ASSAY PROTOCOL: Inhibition of SBK1 at 1 uM
REPORTED ENDPOINT: inhibition

The cases that follow already have their inhibition on record.
{"columns": ["STRUCTURE SMILES", "RESULT"],
 "data": [
  ["CC(=O)N1CCN(c2cc(-c3cnc4c(c3)N(Cc3cc(Cl)ccc3C(F)(F)F)CCN4)ccn2)CC1", "< 50%"],
  ["CN1CCN(c2ccc(-c3cnc4c(c3)N(Cc3cc(F)ccc3F)CCN4)cn2)CC1", "< 50%"],
  ["FC(F)(F)c1ccc(Cl)cc1CN1CCNc2ncc(-c3ccnc(N4CCNCC4)c3)cc21", "< 50%"],
  ["CN1CCN(c2ccc(-c3cnc4c(c3)N(Cc3cc(Cl)ccc3Cl)CCN4)cn2)CC1", "< 50%"],
  ["CN1CCN(c2ccc(-c3cnc4c(c3)N(Cc3c(F)ccc(F)c3Cl)CCN4)cn2)CC1", "< 50%"]
]}

// switching to the query compound
Read the entry CN1CCN(c2ccc(-c3cnc4c(c3)N(Cc3cc(Cl)ccc3C(F)(F)F)CCN4)cn2)CC1 and write its reported inhibition.
< 50%
